Tested on: MCF-7 cells
protocol: Cellular uptake of metformin sulfonamides in MCF-7 cells (HPLC)
Type: in vitro ADME, human
experimental parameters: Eadie-Hofstee analysis, transporter II
Each entry below carries its recorded Vmax, transporter II, MCF-7.
quantity name: Vmax, transporter II, MCF-7 (nmol/min/mg)

>>> print(df.to_string())
                          molecule_smiles  measurement
0    CN(C)C(=N)N=C(N)NS(=O)(=O)c1ccccc1Br        0.153
1     CN(C)C(=N)N=C(N)NS(=O)(=O)c1ccccc1F        22.43
2    CN(C)C(=N)N=C(N)NS(=O)(=O)c1ccccc1Cl        62.84
3  CN(C)C(=N)N=C(N)NS(=O)(=O)c1cccc(Cl)c1        24.91
4  CN(C)C(=N)N=C(N)NS(=O)(=O)c1ccc(Cl)cc1        10.76
5  CN(C)C(=N)N=C(N)NS(=O)(=O)c1ccc(Br)cc1        13.64
6  CN(C)C(=N)N=C(N)NS(=O)(=O)c1cccc(Br)c1        2.167

---

Test system: MDA-MB-231 cells
protocol: Cellular uptake of metformin sulfonamides in MDA-MB-231 cells (HPLC)
Type: in vitro ADME, human
experimental parameters: Michaelis-Menten curve; read-out: Km MDA-231 cells (Michaelis Menten curves)
Each entry below carries its recorded Km.
quantity name: Km

>>> print(df.to_string())
                                   compound  measurement
0  CN(C)C(=N)N=C(N)NS(=O)(=O)c1cccc(Cl)c1 [Compound 2]      6.75 mM
1  CN(C)C(=N)N=C(N)NS(=O)(=O)c1cccc(F)c1 [Compound 8]       7.4 mM
2  CN(C)C(=N)N=C(N)NS(=O)(=O)c1ccc(Br)cc1 [Compound 6]      3.75 mM
